- Assay Target: human SPR (Homo sapiens (Human), UniProt P35270)
- Sequence (P35270 whole entry): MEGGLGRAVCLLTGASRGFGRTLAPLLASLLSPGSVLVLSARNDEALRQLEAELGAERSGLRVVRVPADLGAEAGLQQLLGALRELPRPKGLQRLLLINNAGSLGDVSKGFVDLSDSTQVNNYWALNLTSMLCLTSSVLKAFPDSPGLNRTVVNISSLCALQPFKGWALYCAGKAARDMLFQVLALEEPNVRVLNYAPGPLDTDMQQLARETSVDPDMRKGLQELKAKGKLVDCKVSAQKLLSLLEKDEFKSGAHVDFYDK
- Assay: Evaluation Example 2: Measurement of human SPR inhibitory activity (seven concentrations, sepiapterin absorbance at 420 nm)
- Format: biochemical
- Study Conditions: Evaluation Example 2, seven concentrations 0.14 nM to 100 nM, 240 minutes at room temperature, read-out: IC50
Measured Quantity: pIC50
Just so you know, pIC50 here is -log10 of the concentration in molar units; reply with that number alone.

Known results for compounds:
Compound	pIC50
CC(C)(C)Cn1c(=O)c(C(=O)NC2CC2)c(O)n2nc3c(c12)CCC(=O)N3 [Synthesis Example 403]	9.21
C/C(=C\c1cnn2c(O)c(C(=O)NC3CC3)c(=O)n(CC(C)C)c12)C(=O)N(C)CC#N [Synthesis Example 258]	9.13
Cc1nn2c(O)c(C(=O)NC3CC3)c(=O)n(CC(C)(C)C)c2c1/C=C/C(=O)N1CCC(F)(F)C1 [Synthesis Example 627]	9.03
CC(C)Cn1c(=O)c(C(=O)NC2CC2)c(O)n2ncc(/C=C/C(=O)N3CCC(S(C)(=O)=O)CC3)c12 [compound 488]	9.06
CC(C)(C)Cn1c(=O)c(C(=O)NC2CC2)c(O)n2nc(N)c(/C=C/C(=O)N3CCOCC3)c12 [Synthesis Example 411]	9.19
CC(C)Cn1c(=O)c(C(=O)NC2CC2)c(O)n2ncc(/C=C/C3CC3)c12 [Synthesis Example 246]	8.92
Cc1nn2c(O)c(C(=O)NC3CC3)c(=O)n(CC(C)C)c2c1/C=C/C(=O)N1CCC[C@H]1C(C)C [Synthesis Example 630]	8.91
CC(C)Cn1c(=O)c(C(=O)NC2CCC2)c(O)n2ncc(/C=C/C(=O)N3CCOCC3)c12 [compound 527]	9.13
CC(C)Cn1c(=O)c(C(=O)NC2CC2)c(O)n2ncc(/C=C/C(=O)N3CCC(=O)C3)c12 [compound 516]	9.21
Cc1nn2c(O)c(C(=O)NC3CC3)c(=O)n(CC(C)C)c2c1/C=C/C(=O)N1CCCC12CC2 [Synthesis Example 652]	8.66

Quote pIC50 with test system human SPR (Homo sapiens (Human), UniProt P35270) for Cc1nn2c(O)c(C(=O)NC3CC3)c(=O)n(CC(C)C)c2c1/C=C/C(=O)N1[C@@H](C)CC[C@@H]1C [Synthesis Example 617]
8.98

Quote pIC50 with test system human SPR (Homo sapiens (Human), UniProt P35270) for CC(C)Cn1c(=O)c(C(=O)NC2CC2)c(O)n2ncc(/C=C/C(=O)N3CCC[C@H]3C(N)=O)c12 [compound 486]
9.04

Quote pIC50 with test system human SPR (Homo sapiens (Human), UniProt P35270) for CC(C)Cn1c(=O)c(C(=O)NC2CC2)c(O)n2ncc(/C=C/C(=O)N3CCOCC3(C)C)c12 [compound 459]
9.13

Quote pIC50 with test system human SPR (Homo sapiens (Human), UniProt P35270) for CC(C)Cn1c(=O)c(C(=O)NC2CC2)c(O)n2ncc(/C=C/C(=O)N(C)Cc3ccn(C)n3)c12 [compound 604]
9.04
